Procedure summary: gradient 5% acetonitrile 3 min, to 50% in 2 min, to 85% in 15 min, held 3 min, 100 µL/min
Condition set: column: Zorbax Extend-C18 2.1 x 50 mm; eluents: water / acetonitrile, 0.1% formic acid
Rule: RP-LC retention time below 900 s gives label 1. Equal to or above 900 s gives label 0.

As a guide, the following entries are already answered.
>>> print(df.to_string())
                                   compound  class_label
0  CC(C)NC(=O)N(C1CC1)C1CCOC2(CCN(C(=O)C3CCCC3)CC2)C1 (stereo not given)      label 1
1    CCc1nc2sc(C(C)C)nn2c1S(=O)(=O)N1CCCCC1      label 0

Exercise: Consider the compound CCCN1C(=O)COc2ccc(-c3csc(NC(=O)c4ccncc4)n3)cc21 . Is its RP-LC retention time strictly less than 900 s?
Solution: label 1

Exercise: Consider the compound Cc1ccc(CNC(=O)N(C)CC2CCOCC2)cc1 . Is its RP-LC retention time strictly less than 900 s?
Solution: label 1

###

Would you kindly list RP-LC retention time for each of these compounds?
Procedure summary: gradient 5% acetonitrile 3 min, to 50% in 2 min, to 85% in 15 min, held 3 min, 100 µL/min
Condition set: column: Zorbax Extend-C18 2.1 x 50 mm; eluents: water / acetonitrile, 0.1% formic acid
One number for each entry, in s.

Examples with their reported RP-LC retention time follow.
                                   compound    measured_parameter  experimental_value
0  COc1ccc(-c2nn(CCCC(=O)N3CCN(c4ccccn4)CC3)c(=O)c3noc(C)c23)cc1  RP-LC retention time                 636
1  CCc1cc(=O)n(Cc2ncc(C)c(OC)c2C)c(N2CCOCC2)n1  RP-LC retention time                 620
2  Cc1oc(-c2cccc(Cl)c2)nc1Cn1nnc(-c2nc(-c3cccnc3)no2)c1C  RP-LC retention time                1080
3  O=C(NCc1ccccc1Cl)c1ccc2c(c1)CCN2C(=O)C1CC1  RP-LC retention time                 856
4  COc1ccc(N2CCN(C(=O)C3(CCO)CC34CCOCC4)CC2)cc1 (centres undefined)  RP-LC retention time                 628

Fill in RP-LC retention time for each of the 4 compounds listed.
1. COc1ccc2c(c1)C13CCN(C)C(C2)C1CCC1(C3)OCCO1 (centres undefined)
2. COc1ccc(CNC(=O)c2cc3sccc3n2Cc2ccc(F)cc2)cc1
3. O=C(Nc1ccc(OCC(=O)N2CCN(c3cccc(Cl)c3)CC2)nc1)C1CC1
4. COc1cc(NS(=O)(=O)c2ccc(Nc3nc(-c4ccc(C)cc4)cs3)cc2)nc(OC)n1

Solution:
1. 645
2. 1080
3. 836
4. 1100

Fill in RP-LC retention time for each of the 2 compounds listed.
1. Cn1c(=O)c2nc(SCCC(=O)NCc3cc(F)cc(F)c3)n(C)c2n(C)c1=O
2. COC(=O)c1cncn1C(C)c1ccccc1 (centres undefined)

Solution:
1. 733
2. 737

Fill in RP-LC retention time for each of the 4 compounds listed.
1. Cc1cccc(N2CCN(c3ccc4cc(S(=O)(=O)N5CCCCC5)ccc4n3)CC2C)c1 (centres undefined)
2. O=C(Nc1ccc(Br)cc1F)C1CCN(C(=O)c2cc(-c3cccnc3)n[nH]2)CC1
3. Cn1c(N2CCN(C(=O)COc3ccc(Cl)cc3)CC2)cc(=O)n(C)c1=O
4. Cc1cc(C)cc(NC(=O)c2cnn3c2CCCC3)c1

Solution:
1: 1110; 2: 676; 3: 666; 4: 603

Fill in RP-LC retention time for each of the 8 compounds listed.
1. COc1ccc(NC(=O)c2cn(-c3cc(N4CCCCC4C)ncn3)cn2)cc1OC (centres undefined)
2. CCn1cc(C)c(C(=O)O)c1CC(=O)N1CCc2ccccc21
3. CSc1ccc(NC(=O)C2CCN(c3cnc4nc(C)c(C)nc4c3)CC2)cc1
4. O=C(C1CC1)N1CCc2sc(S(=O)(=O)NCc3cccc(F)c3)cc2C1
5. O=C1CCCCC(CNC(=O)c2n[nH]c(=O)c3ccccc23)N1 (centres undefined)
6. Cc1ccc2nc(-c3c(F)cccc3Cl)c(Nc3ccc4c(c3)OCCO4)n2c1
7. Cc1ccc(S(=O)(=O)c2cnc(N3CCN(c4cccc(Cl)c4)CC3)nc2N)cc1C
8. CCOc1ccc(NC(=O)c2cn(-c3cc(N4CCCC(C)C4)ncn3)cn2)cc1 (centres undefined)

Solution:
[939, 815, 767, 805, 604, 692, 1260, 1130]

###

Procedure summary: gradient 5% acetonitrile 3 min, to 50% in 2 min, to 85% in 15 min, held 3 min, 100 µL/min
Condition set: column: Zorbax Extend-C18 2.1 x 50 mm; eluents: water / acetonitrile, 0.1% formic acid
Would you kindly list RP-LC retention time for each of these molecules?
Give bare numbers, in s.

Examples with their reported RP-LC retention time follow.
>>> print(df.to_string())
                                   molecule    measured_parameter  experimental_value
0  CCN1CCCn2cc(S(=O)(=O)N3CCN(Cc4ccccc4)CC3)cc2C1=O  RP-LC retention time                 587
1  O=C(C1CCN(c2cnc3nccnc3c2)CC1)N1CCN(c2ccc(F)cc2)CC1  RP-LC retention time                 723
2  Cn1cccc1C(=O)N1CCCCC1c1nncn1Cc1ccccc1 (centres undefined)  RP-LC retention time                 745

Fill in RP-LC retention time for each of the 3 molecules listed.
1. Cc1ccc(-c2nc(C3CC(=O)N(c4ccc(Cl)cc4)C3)no2)cc1 (centres undefined)
2. CC(Oc1ccccc1)c1nc(-c2ccc3c(c2)ncn3CCC(=O)N2CCCC2)no1 (centres undefined)
3. CC(C)n1cnc(S(=O)(=O)N2CCC(C(=O)N3CCN(c4cccc(Cl)c4)CC3)CC2)c1

Solution:
1. 978
2. 751
3. 876

Fill in RP-LC retention time for each of the 3 molecules listed.
1. Cn1nc(-c2nc(C3CC3)no2)c2c1CCN(C(=O)c1cc(F)ccc1Cl)C2
2. COc1cc(-c2nc(-c3ccc4c(c3)oc(=O)n4C)no2)cc(OC)c1OC
3. CC(NC(=O)Cc1nnc2cc(-c3nc(C4CC4)no3)ccn12)c1ccc(F)cc1 (centres undefined)

Solution:
1. 842
2. 985
3. 780

###

Procedure summary: gradient 5% acetonitrile 3 min, to 50% in 2 min, to 85% in 15 min, held 3 min, 100 µL/min
Condition set: column: Zorbax Extend-C18 2.1 x 50 mm; eluents: water / acetonitrile, 0.1% formic acid
Rule: RP-LC retention time below 800 s gives yes. Equal to or above 800 s gives no.

                                   compound  class_label
0  CCCC(=O)N1CCc2c(c(C(=O)NCc3ccc4c(c3)OCO4)nn2C)C1          yes

Exercise: Consider the compound CCOc1ccc(NC(=O)C2CC(=O)N(c3ccc4c(c3)CCN4C(C)=O)C2)cc1 (centres undefined) . Is its RP-LC retention time strictly less than 800 s?
Solution: yes

Exercise: Consider the compound O=C(CCC[C@@H]1[C@H]2CCCN3CCC[C@@H](CN1C(=O)C1CC1)[C@@H]23)Nc1ccccc1 . Is its RP-LC retention time strictly less than 800 s?
Solution: yes

Exercise: Consider the compound CCC(=O)N1c2ccc(S(=O)(=O)N3CCCCC3)cc2CC1C(=O)NCc1ccccc1C (centres undefined) . Is its RP-LC retention time strictly less than 800 s?
Solution: no

###

Procedure summary: gradient 5% acetonitrile 3 min, to 50% in 2 min, to 85% in 15 min, held 3 min, 100 µL/min
Condition set: column: Zorbax Extend-C18 2.1 x 50 mm; eluents: water / acetonitrile, 0.1% formic acid
Measured parameter: RP-LC retention time (s)
Numbers only, in s.

Examples with their reported RP-LC retention time follow.
In [3]: df
Out[3]:
                                   compound    measured_parameter  experimental_value
0    COc1ccc(Cl)cc1C(=O)Nc1cc(-c2cccnc2)no1  RP-LC retention time                 902
1     CCCCC(=O)Nc1ccc(-c2cn3ccc(C)nc3n2)cc1  RP-LC retention time                 612
2  O=C(Cn1nc2c(Oc3cccc(F)c3)nccn2c1=O)Nc1cc(F)ccc1F  RP-LC retention time                 885
3  Cc1csc(-c2cc(S(=O)(=O)NCc3ccc(C(C)C)cc3)cn2CC(=O)N2CCCC2)n1  RP-LC retention time                1030
4  CCN1C(=O)COc2ccc(-c3nc(NC(=O)C(C)(C)C)sc3C)cc21  RP-LC retention time                 643
5  O=S(=O)(Nc1cccc(C(F)(F)F)c1)c1ccc2c(c1)-c1oncc1CO2  RP-LC retention time                 998
6  COc1ccc(-c2nnc(-c3cccc(S(=O)(=O)N(C)C)c3)o2)cc1  RP-LC retention time                 908
7  COc1ccc(-c2nc(NCCCN3CCCC(C)C3)c3ccccc3n2)cc1 (centres undefined)  RP-LC retention time                 572

GET /value?item= COc1ccc(NC(=O)N2CCN(Cc3nc4ccccc4o3)CC2)cc1 &field=RP-LC retention time returns 642
